Taken from paper PMC4183655.

- tgt: BRD4(1) (Homo sapiens, UniProt O60885)
- experimental_protocol: Isothermal titration calorimetry (ITC)
- condition_info: At T = 298.15 K
recorded_endpoint: ITC 9T∆S, BRD4(1)
Please answer using the number first and the unit second.

Send back BRD4(1) (Homo sapiens, UniProt O60885) ITC 9T∆S, BRD4(1) of "Cc1ccc(CCc2nc3cc(-c4c(C)noc4C)ccc3n2CCN2CCOCC2)cc1" only.
0.501 kcal/mol

Report value only: ITC 9T∆S, BRD4(1), BRD4(1) (Homo sapiens, UniProt O60885), "Cc1noc(C)c1-c1ccc(NC[C@H](C)N2CCOCC2)c([N+](=O)[O-])c1"
0.725 kcal/mol

Answer briefly: ITC 9T∆S, BRD4(1) recorded on BRD4(1) (Homo sapiens, UniProt O60885) for "COc1ccc(CCc2nc3cc(-c4c(C)noc4C)ccc3n2CCN2CCOCC2)cc1Cl"
1.670 kcal/mol

Enter measured ITC 9T∆S, BRD4(1), system BRD4(1) (Homo sapiens, UniProt O60885), for the molecule shown: "Cc1noc(C)c1-c1ccc2c(c1)nc(CCn1ccc3ccccc31)n2C[C@H](C)N1CCOCC1"
1.12 kcal/mol
